The binders listed here are annotated with their Ratio hCT/hAmylin binding.
Molecular target: T1, human calcitonin receptor (human, UniProt P30988 25-474)
T1 construct: whole, on cells; Membranes of stably transfected cells; also called hCTR; hCT
T1 sequence (looked up): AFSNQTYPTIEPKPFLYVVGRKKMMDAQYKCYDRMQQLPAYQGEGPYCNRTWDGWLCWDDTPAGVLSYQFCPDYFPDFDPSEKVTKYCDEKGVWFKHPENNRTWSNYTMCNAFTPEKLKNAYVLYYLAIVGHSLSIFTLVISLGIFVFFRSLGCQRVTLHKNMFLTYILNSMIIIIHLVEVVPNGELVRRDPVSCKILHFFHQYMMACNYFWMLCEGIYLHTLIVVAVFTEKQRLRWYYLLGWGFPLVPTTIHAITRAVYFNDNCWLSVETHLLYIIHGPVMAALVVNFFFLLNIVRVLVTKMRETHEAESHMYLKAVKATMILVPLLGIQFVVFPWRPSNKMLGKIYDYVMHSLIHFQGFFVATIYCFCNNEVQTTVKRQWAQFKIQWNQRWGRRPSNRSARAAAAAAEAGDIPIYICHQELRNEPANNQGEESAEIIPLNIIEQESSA
Assay: ratio of IC50 on human calcitonin receptor to IC50 on human amylin receptor (reference m42), SPA competition
Numbered stars: 1 amine (or outer) side, 2 acyl side, 3 side chain; on linkers, the order of the positions; unused ones are H or OH. Bridge positions count the residues as written; N and C are the ends. Side chains are listed from the residue outwards. Ends that are not written are not given here. * marks the point of attachment. C20 diacid = O=C(O)CCCCCCCCCCCCCCCCCCC(=O)*; γGlu = O=C(O)[C@H](CCC(=O)[*:2])N[*:1]
Form field (numeric): enter value without unit.

Please review the following examples before continuing.
>  <binder>
K([γGlu-γGlu-C20 diacid])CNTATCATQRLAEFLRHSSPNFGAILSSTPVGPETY-NH2 (disulfide 2-7, Synthetic acylated analogue of human amylin)

>  <Ratio hCT/hAmylin binding>
22.6

$$$$
>  <binder>
{C20 diacid-γGlu}-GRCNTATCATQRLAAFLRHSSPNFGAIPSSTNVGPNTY-NH2 (disulfide 3-8, Synthetic acylated analogue of human amylin, extended by Gly at position -1)

>  <Ratio hCT/hAmylin binding>
26.5

$$$$

Would you kindly look at the next entry?
Q: What does the data say about its Ratio hCT/hAmylin binding? Entry: K([γGlu-γGlu-C20 diacid])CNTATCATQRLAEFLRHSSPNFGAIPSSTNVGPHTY-NH2 (disulfide 2-7 (inferred), Synthetic acylated analogue of human amylin)
Result: 27.3
